tested-on: Cat K (Homo sapiens)
Sequence (P43235 115-329): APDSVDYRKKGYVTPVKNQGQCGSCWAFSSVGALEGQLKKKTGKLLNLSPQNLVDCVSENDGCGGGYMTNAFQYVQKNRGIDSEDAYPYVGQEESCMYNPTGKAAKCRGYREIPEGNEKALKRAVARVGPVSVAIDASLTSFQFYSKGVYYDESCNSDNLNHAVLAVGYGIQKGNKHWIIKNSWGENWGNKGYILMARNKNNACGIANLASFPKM
method: Cat K inhibition
Format: biochemical
measured-parameter: Ki (nM)
Record the value in nM, omitting the unit from your answer.

Record lookup: for Cat K (Homo sapiens), what Ki belongs to CC(C)CC(NC(=O)OCc1ccccc1)C(=O)NC(C)C(=O)C(=O)NCC(=O)NC(Cc1ccc2ccccc2c1)C(N)=O (centres unmarked) ?
0.5

Also need CC(NC(=O)C(Cc1ccccc1)NC(=O)c1ccccc1)C(=O)C(=O)NC(Cc1ccccc1)C(=O)NC(C)(C)C(N)=O (centres unmarked) , thanks.
281

Also need CC(NC(=O)C(Cc1ccccc1)NC(=O)Cc1ccccc1)C(=O)C(=O)NC(Cc1ccccc1)C(=O)NC(C)(C)C(=O)NCCc1ccccc1 (centres unmarked) , thanks.
310

Also need CC(NC(=O)[C@H](Cc1ccccc1)NC(=O)C(c1ccccc1)c1ccccc1)C(=O)C(=O)N[C@@H](Cc1ccccc1)C(=O)NC(C)(C)C(N)=O (some centres unmarked) , thanks.
226

Also need CC(C)CC(NC(=O)C(=O)C(C)NC(=O)C(Cc1ccccc1)NC(=O)Cc1ccccc1)C(=O)NC(C)(C)C(N)=O (centres unmarked) , thanks.
2460
